molecular target: PAK7 Catalytic Domain (Homo sapiens); construct: For all of them, we expressed and purified the catalytic domain separately; His-tag; made in house; host or cells: Escherichia coli; test: Differential Scanning Fluorimetry (DSF) Tm shift; type: binding; conditions: 2 µM protein, 10 µM inhibitor, average of 3 experiments, each in duplicate
Sequence (Q9P286 449-700 limits assumed): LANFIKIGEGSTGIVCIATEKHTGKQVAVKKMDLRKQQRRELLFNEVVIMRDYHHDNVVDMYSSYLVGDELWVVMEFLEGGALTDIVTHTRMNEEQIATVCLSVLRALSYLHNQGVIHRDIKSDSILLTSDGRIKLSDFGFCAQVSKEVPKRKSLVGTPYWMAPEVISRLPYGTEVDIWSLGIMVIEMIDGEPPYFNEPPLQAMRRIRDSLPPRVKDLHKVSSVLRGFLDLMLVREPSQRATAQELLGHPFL
Classification field: enter yes (1) for Melting temperature (Tm) shift values not below 0.1 degrees Celcius, no (0) for values below it.

Query: Please check the record CCN1/C(=C/C(C)=O)Sc2ccc(OC)cc21 and state if its Melting temperature (Tm) shift is at or above 0.1 degrees Celcius.
Reply: no (0)

Query: Please check the record O=C(c1ccc(Nc2nccc(-c3cc4ccccc4s3)n2)cc1)N1CCC(N2CCCC2)CC1 and state if its Melting temperature (Tm) shift is at or above 0.1 degrees Celcius.
Reply: yes (1)

Query: Please check the record CN[C@@H]1C[C@H]2O[C@@](C)([C@@H]1OC)n1c3ccccc3c3c4c(c5c6ccccc6n2c5c31)C(=O)N[C@@H]4O and state if its Melting temperature (Tm) shift is at or above 0.1 degrees Celcius.
Reply: yes (1)

Query: Please check the record CC(C)[C@H](CO)Nc1nc(Nc2cccc(Cl)c2)c2ncn(C(C)C)c2n1 and state if its Melting temperature (Tm) shift is at or above 0.1 degrees Celcius.
Reply: yes (1)
